- Test system: MCF-10F cells
- run description: Cytotoxic assay, IC50 in non-tumorigenic MCF-10F cells
- Type: cell-based, human
- run conditions: Homo sapiens; MCF-10F non-tumorigenic cells, mean ± SD; read-out: IC50 Cell Lines MCF-10F
pIC50: −log10 of the molar value.
outcome measure: pIC50

• COc1ccc(/C=C/C(=O)c2ccccc2)cc1 [Compound 4] = < 4.10

* * *

- System: ZR-75-1 cells
- run description: Cytotoxic assay, IC50 in ZR-75-1 cells
- Assay type: cell-based
- run conditions: Homo sapiens, mean ± SD, read-out: IC50 Cell Lines ZR-75-1
pIC50: −log10 of the molar value.
outcome measure: pIC50

• COc1cccc2c1C(=O)c1c(O)c3c(c(O)c1C2=O)C[C@@](O)(C(=O)CO)C[C@@H]3O[C@H]1C[C@H](N)[C@H](O)[C@H](C)O1 [Doxorubicin, reference compound] = 4.10
• COc1cc(/C=C/C(=O)c2ccccc2)ccc1O = 4.36
• COc1cc(/C=C/C(=O)c2ccc(O)c(CC=C(C)C)c2)ccc1O = 5.03

* * *

Overview of reported IC50 across a group of molecules:
- Tested on: ZR-75-1 cells
- run description: Cytotoxic assay, IC50 in ZR-75-1 cells
- Type: cell-based
- run conditions: Homo sapiens, mean ± SD, read-out: IC50 Cell Lines ZR-75-1
outcome measure: IC50 (µM)

* CC(C)=CCc1cc(C(=O)/C=C/c2ccc(N(C)C)cc2)ccc1O [Compound 11] | 78.2
* CC(=O)c1ccc(O)c(CC=C(C)C)c1 [Compound 1b] | 61.6
* CN(C)c1ccc(/C=C/C(=O)c2ccccc2)cc1 [Compound 5] | 76.5
* COc1cc(OC)c(OC)cc1/C=C/C(=O)c1ccc(O)c(CC=C(C)C)c1 [Compound 13] | 8.75
